Biological target: T1, natural SP-A in rat lung tissue (rat, UniProt P08427 21-248)
T1 construct: The immunohistochemistry is done on rat lung tissue; also called natural SP-A in the lung tissue
Experiment: immunohistochemistry (method of Example 6, rat lung tissue)
property: binding result

Nb48 (VHH, Alpaca VHH clone; screened as phage clone; also called N0; 48; rSPA-Nb) VHH: MQAQLAGQLQLVESGGGLVEVGESLRLSCVALGFTLDGYAIGWFRQAPGKEREKISCISSTGDSTNYDDSVKGRFTISRDTAKSTVFLQMNNLIPEDTAIYYCGADLLARCGRVWYFPPDLNYRGQGTQVTVSSAHHSEDPGPRGLAAAGAPVPYPDPLEPRAA: binds
Nb9 (VHH, Alpaca VHH clone; screened as phage clone; also called N0; rSPA-Nb) VHH: MQAQLAGQLQLVESGGGLVQPGGSLRLSCTASEFTLDYHSIGWFRQAPGKEREGVSCISYGDGTTFYTDSVKGRFTISRDNAKNTVTLQMNSLKPEDTAVYYCAASPGRLLLFRLCMSEDEYDFWGQGTQVTVSSEPKTPKPQGPRGLAAAGAPVPYPDPLEPRAA: binds
Nb18 (VHH, Alpaca VHH clone; screened as phage clone; also called N0; 18; rSPA-Nb) VHH: MQAQLAGQLQLVESGGGLVQPGGSLMLSCVVSGVTISNYGMTWVRQAPGKGLEWISTIYSNGHTYYADSVKGRFTASRDNAKNTLYLQMNSLKPEDTAKYYCKLTGETHRGQGTQVTVSSEPKTPKPQGPRGLAAAGAPVPYPDPLEPRAA: binds
